- Tested on: serum ALT activity induced by CCl4
- run description: Protective effect against acute hepatic damage induced by carbon tetrachloride (serum ALT)
- Type: in vivo
- assay setup: Mus musculus; mice, 50 mg/kg oral, 6 h before CCl4 (50 ul/kg oral); ALT 24 h after CCl4; read-out: Inhibitory (%): protective effect against increase of serum ALT activity induced by CCl4
Could you please report measured inhibition in vivo at 50 mg/kg for the items listed next?
# output: bare number, implied unit %

Note to self: inhibition in vivo at 50 mg/kg of CCOC(=O)C(C(=O)Nc1ccc(O)cc1)=C1SC=CS1 [22(b)] with serum ALT activity induced by CCl4 was 90.9

Sample CC(=O)Oc1cccc(NC(=O)C(C(=O)OC(C)C)=C2SC=CS2)c1 [24(b)] , system: serum ALT activity induced by CCl4. Its inhibition in vivo at 50 mg/kg is 98

Value sought: inhibition in vivo at 50 mg/kg, system serum ALT activity induced by CCl4, item COc1cccc(NC(=O)C(C(=O)OC(C)C)=C2SC=CS2)c1 [Example 17(o)] . Result: 100

The molecule COC(=O)C(C(=O)Nc1ccccc1)=C1SC=CS1 [17(d)] , when measured on serum ALT activity induced by CCl4, yielded inhibition in vivo at 50 mg/kg of 98.2

Param item: Cc1nc(NC(=O)C(C(=O)OC(C)C)=C2SC=CS2)sc1C [19(f)] ; param system: serum ALT activity induced by CCl4; output inhibition in vivo at 50 mg/kg: 91.4

Record CC(C)OC(=O)C(C(=O)NC1CCSC1=O)=C1SC=CS1 (stereo not shown) [14(a)] ; system serum ALT activity induced by CCl4; inhibition in vivo at 50 mg/kg = 99.2

Readout inhibition in vivo at 50 mg/kg for Cc1nnc(NC(=O)C(C(=O)OC(C)C)=C2SC=CS2)s1 [18(j)] , test system serum ALT activity induced by CCl4, was 100

Cc1ccc(NC(=O)C(C(=O)OC(C)C)=C2SC=CS2)cc1 [17(e)] on serum ALT activity induced by CCl4 gives inhibition in vivo at 50 mg/kg = 100

GET /values?item= CCOC(=O)C(C(=O)Nc1nccs1)=C1SC=CS1 [19(b)] &system= serum ALT activity induced by CCl4 returns inhibition in vivo at 50 mg/kg: 101

Observed inhibition in vivo at 50 mg/kg, serum ALT activity induced by CCl4, CC(C)OC(=O)C(C(=O)Nc1ccc(Cl)cn1)=C1SC=CS1 [18(g)] : 77.3

Form: item CC(C)OC(=O)C(C(=O)N1CCCC1C(=O)O)=C1SC=CS1 (stereo not shown) [Example 15] ; test system serum ALT activity induced by CCl4; inhibition in vivo at 50 mg/kg: 14

Hey, serum ALT activity induced by CCl4 data for CC(C)OC(=O)C(C(=O)Nc1cccc(C(F)(F)F)c1)=C1SC=CS1 [17(t)] : inhibition in vivo at 50 mg/kg came out at 96

Test item CC(C)OC(=O)C(C(=O)Nc1ccc(C(F)(F)F)cc1)=C1SC=CS1 [17(s)] ; serum ALT activity induced by CCl4; reported inhibition in vivo at 50 mg/kg was 100

Measured inhibition in vivo at 50 mg/kg (serum ALT activity induced by CCl4), entry CC(C)OC(=O)C(C(=O)Nc1ccc(Cl)cc1)=C1SC=CS1 [17(g)] : 81.5

For the molecule CC(C)OC(=O)C(C(=O)Nc1ccccc1)=C1SC=CS1 [17(a)] , the measured inhibition in vivo at 50 mg/kg on serum ALT activity induced by CCl4 was 100

Response field inhibition in vivo at 50 mg/kg (serum ALT activity induced by CCl4) for item Cc1cccc(NC(=O)C(C(=O)OC(C)C)=C2SC=CS2)c1C [17(f)] : 92

Entry CCC(C)OC(=O)C(C(=O)Nc1ccc(OC)cc1)=C1SC=CS1 (stereo not shown) [17(n)] : inhibition in vivo at 50 mg/kg on serum ALT activity induced by CCl4 = 96.5

Record CNC(=O)C(C(=O)OC(C)C)=C1SC=CS1 [Example 10] / serum ALT activity induced by CCl4, inhibition in vivo at 50 mg/kg recorded as 92

Form field, inhibition in vivo at 50 mg/kg with serum ALT activity induced by CCl4, item CC(C)OC(=O)C(C(=O)N(C)c1ccccc1)=C1SC=CS1 [Example 16] : 47.9

Item: CC(C)OC(=O)C(C(=O)Nc1nnn[nH]1)=C1SC=CS1 [20(b)] | System: serum ALT activity induced by CCl4 | inhibition in vivo at 50 mg/kg: 99.9

For the molecule CC(=O)Oc1ccccc1NC(=O)C(C(=O)OC(C)C)=C1SC=CS1 [24(c)] , the measured inhibition in vivo at 50 mg/kg on serum ALT activity induced by CCl4 was 22.8

Record CCOC(=O)C(C(=O)Nc1ccccc1)=C1SC=CS1 [17(c)] / serum ALT activity induced by CCl4, inhibition in vivo at 50 mg/kg recorded as 100

Tested on serum ALT activity induced by CCl4, the item CC(C)OC(=O)C(C(=O)Nc1nccs1)=C1SC=CS1 [19(a)] showed inhibition in vivo at 50 mg/kg equal to 100

Tested system serum ALT activity induced by CCl4; inhibition in vivo at 50 mg/kg recorded for CC(=O)Nc1ccc(NC(=O)C(C(=O)OC(C)C)=C2SC=CS2)cc1 [17(q)] was 78.2

The measured inhibition in vivo at 50 mg/kg that CC(C)OC(=O)C(C(=O)Nc1ccc(F)c(Cl)c1)=C1SC=CS1 [17(k)] showed for serum ALT activity induced by CCl4 is 93.8

Log: serum ALT activity induced by CCl4, molecule CC(C)OC(=O)C(C(=O)NC1=NCCS1)=C1SC=CS1 [22(e)] , inhibition in vivo at 50 mg/kg = 99.4

Case Cc1csc(NC(=O)C(C(=O)OC(C)C)=C2SC=CS2)n1 [19(d)] , serum ALT activity induced by CCl4, inhibition in vivo at 50 mg/kg recorded as 97.2

For CC(C)OC(=O)C(C(=O)NC1CCCCC1)=C1SC=CS1 [Example 12] on serum ALT activity induced by CCl4, measured inhibition in vivo at 50 mg/kg was 98

* * *

- Tested on: serum ALT activity induced by CCl4
- run description: Protective effect against acute hepatic damage induced by carbon tetrachloride (serum ALT)
- Assay type: in vivo
- assay setup: Mus musculus; mice, 50 mg/kg oral, 6 h before CCl4 (50 ul/kg oral); ALT 24 h after CCl4; read-out: Inhibitory (%): protective effect against increase of serum ALT activity induced by CCl4
readout label: inhibition in vivo at 50 mg/kg (%)
Value expressed in %; do not type the unit.

What the record says about CCN(CC)C(=O)C(C(=O)OC(C)C)=C1SC=CS1 : inhibition in vivo at 50 mg/kg is 55.6

// inhibition in vivo at 50 mg/kg lookup, compound = CC(C)OC(=O)C(C(=O)Nc1ncccn1)=C1SC=CS1 , result: 99.8

For CCOC(=O)C(C(=O)Nc1ccc(OC)cc1)=C1SC=CS1 the compound record lists inhibition in vivo at 50 mg/kg as 61.5

The reported inhibition in vivo at 50 mg/kg of the compound CC(C)OC(=O)C(C(=O)Nc1cccc(Cl)c1)=C1SC=CS1 was 97.5

// inhibition in vivo at 50 mg/kg value for CC(C)OC(=O)C(C(=O)Nc1[nH]cnc1C(N)=O)=C1SC=CS1 : 98.7

GET /value?item= CC(C)OC(=O)C(C(=O)Nc1ccccn1)=C1SC=CS1 &field=inhibition in vivo at 50 mg/kg returns 99.8

get_value(item= CCC(C)OC(=O)C(C(=O)Nc1nccs1)=C1SC=CS1 (stereo not drawn) , readout=inhibition in vivo at 50 mg/kg) returns 100

Looking up CC(=O)Oc1ccc(NC(=O)C(C(=O)OC(C)C)=C2SC=CS2)cc1 , I found its inhibition in vivo at 50 mg/kg recorded as 102

The compound listed as CC(C)OC(=O)C(C(=O)Nc1ccc(F)cc1)=C1SC=CS1 shows inhibition in vivo at 50 mg/kg equal to 89.8

Entry under test: CC(C)NC(=O)C(C(=O)OC(C)C)=C1SC=CS1 . Its inhibition in vivo at 50 mg/kg was 49.4

inhibition in vivo at 50 mg/kg measured on CC(C)OC(=O)C(C(=O)N1CCN(C)CC1)=C1SC=CS1 = 46

So for CC(C)OC(=O)C(C(=O)n1ccnc1)=C1SC=CS1 , the logged inhibition in vivo at 50 mg/kg turned out to be 98
